Target: SRSF protein kinase 1 (Homo sapiens) (UniProt Q96SB4);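 note: values are mean percent inhibition of SRPK1 kinase, measured in the GSK PKIS screening panel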
Details: at 0.1 µM
Measured inhibition, listed per entry for reference.
reported property: inhibition

smiles string	test system	reported property	readout value
O=C1Nc2ccccc2/C1=C1\CCc2cc(O)ccc21	SRSF protein kinase 1 (Homo sapiens) (UniProt Q96SB4)	inhibition	-1.97%
CNC(=O)c1ncccc1Nc1nc(Nc2cc3c(cc2OC)CCCN3C(=O)CN(C)C)nc2[nH]ccc12	SRSF protein kinase 1 (Homo sapiens) (UniProt Q96SB4)	inhibition	-1.98%
NC(=O)c1ccc2c(-c3ccnc(NCCCO)n3)c(-c3ccc(F)cc3)nn2c1	SRSF protein kinase 1 (Homo sapiens) (UniProt Q96SB4)	inhibition	-2.08%

* * *

Target: Tyrosine-protein kinase BTK (Homo sapiens) (UniProt Q06187);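 note: values are averaged percent inhibition of BTK enzyme activity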
Sequence (Q06187 whole entry): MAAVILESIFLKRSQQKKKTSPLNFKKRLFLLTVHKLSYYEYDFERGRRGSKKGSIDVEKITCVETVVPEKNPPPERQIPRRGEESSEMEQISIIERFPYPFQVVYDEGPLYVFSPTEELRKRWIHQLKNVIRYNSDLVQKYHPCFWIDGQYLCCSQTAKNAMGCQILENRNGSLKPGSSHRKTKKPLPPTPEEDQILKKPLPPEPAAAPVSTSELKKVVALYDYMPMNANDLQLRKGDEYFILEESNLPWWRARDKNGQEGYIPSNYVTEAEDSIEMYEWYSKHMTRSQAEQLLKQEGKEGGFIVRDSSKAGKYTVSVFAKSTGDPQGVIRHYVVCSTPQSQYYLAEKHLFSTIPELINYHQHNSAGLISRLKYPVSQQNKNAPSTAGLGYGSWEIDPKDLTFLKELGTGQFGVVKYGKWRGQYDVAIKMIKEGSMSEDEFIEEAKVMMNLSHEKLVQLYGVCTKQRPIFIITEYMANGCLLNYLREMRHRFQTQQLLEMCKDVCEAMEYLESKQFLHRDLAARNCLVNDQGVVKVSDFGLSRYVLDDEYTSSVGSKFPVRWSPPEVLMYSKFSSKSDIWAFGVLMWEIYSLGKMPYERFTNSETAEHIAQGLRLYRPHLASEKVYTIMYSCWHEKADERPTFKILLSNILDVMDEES
Conditions: at 0.1 µM
reported property: inhibition

smiles string	reported property	readout value
COc1ccc2ncn(-c3cc(O[C@H](C)c4ccccc4C(F)(F)F)c(C(N)=O)s3)c2c1	inhibition	-0.76%
O=C(Nc1n[nH]c2nnc(-c3cccnc3)cc12)C1CC1	inhibition	0.26%
NC(=O)c1ccc2c(-c3ccnc(NCCCO)n3)c(-c3ccc(F)cc3)nn2c1	inhibition	0.41%
CN(C)CCNC(=O)Nc1ccc(N(C)c2ccnc(Nc3ccc(CS(C)(=O)=O)cc3)n2)cc1	inhibition	2.45%
COc1cc2c(cc1Nc1nc(Nc3cccc(F)c3C(N)=O)c3cc[nH]c3n1)N(C(=O)CN1CCN(C(C)C)CC1)CC2	inhibition	-0.03%
Fc1ccc(Nc2nccc(-c3c(-c4ccc(C(F)(F)F)cc4)nn4ncccc34)n2)cc1F	inhibition	1.62%

* * *

Target: Tyrosine-protein kinase FRK (Homo sapiens) (UniProt P42685);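 note: reported percent inhibition is a mean value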
Sequence (P42685 whole entry): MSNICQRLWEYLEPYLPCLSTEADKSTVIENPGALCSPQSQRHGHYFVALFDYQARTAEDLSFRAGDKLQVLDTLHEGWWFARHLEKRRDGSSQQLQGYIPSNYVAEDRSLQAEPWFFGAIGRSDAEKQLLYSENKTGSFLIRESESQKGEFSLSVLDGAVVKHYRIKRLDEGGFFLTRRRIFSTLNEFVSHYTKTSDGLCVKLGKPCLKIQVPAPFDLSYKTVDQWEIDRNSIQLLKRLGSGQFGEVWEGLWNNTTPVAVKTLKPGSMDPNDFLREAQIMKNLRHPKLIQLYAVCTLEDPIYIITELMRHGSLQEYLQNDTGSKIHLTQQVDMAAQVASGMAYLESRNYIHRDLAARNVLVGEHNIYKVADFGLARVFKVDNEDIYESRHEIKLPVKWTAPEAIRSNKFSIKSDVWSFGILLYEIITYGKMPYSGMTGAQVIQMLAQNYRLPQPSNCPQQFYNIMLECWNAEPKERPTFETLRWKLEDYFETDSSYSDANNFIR
Conditions: at 1 µM

smiles string	inhibition
Fc1cccc(COc2ccc(Nc3ncncc3C#Cc3ccccc3)cc2Cl)c1	1.62%
CCn1c(-c2nonc2N)nc2cncc(C(=O)NCCNC)c21	3.52%
CS(=O)(=O)CCNCc1ccc(-c2ccc3ncnc(Nc4ccc(OCc5cccc(C(F)(F)F)c5)cc4)c3c2)o1	3.25%
CS(=O)(=O)Nc1ccc(-c2ccc3c(NC(=O)C4CC4)n[nH]c3c2)cc1	1.03%
NC(=O)c1ccc2c(-c3ccnc(NCCCO)n3)c(-c3ccc(F)cc3)nn2c1	3.97%
COc1ccc2ncn(-c3cc(O[C@H](C)c4ccccc4C(F)(F)F)c(C(N)=O)s3)c2c1	1.39%
COc1c(C(N)=O)cc(-c2ccc(Cl)cc2)cc1-c1ccc(S(N)(=O)=O)cc1	3.5%

* * *

Measured inhibition, listed per entry for reference.
Biological target: Epidermal growth factor receptor (Homo sapiens)
Conditions: at 0.1 µM
Description: GSK_PKIS: EGFR mean inhibition at 0.1 uM [Nanosyn]

smiles string	readout unit	inhibition
O=C(Nc1n[nH]c2nnc(-c3cccnc3)cc12)C1CC1	%	0.34
CNC(=O)c1sc(-n2cnc3cc(OC)c(OC)cc32)cc1OCc1ccccc1C(F)(F)F	%	-0.83
CS(=O)(=O)CCNCc1ccc(-c2ccc3ncnc(Nc4ccc(OCc5cccc(C(F)(F)F)c5)cc4)c3c2)o1	%	15.5
CN(c1ccc(NC(=O)NCCN2CCOCC2)cc1)c1ccnc(Nc2ccc(CS(C)(=O)=O)cc2)n1	%	-0.15
FC(F)(F)CNc1nccc(-c2cnn3ncccc23)n1	%	1.39

* * *

Target: Mitogen-activated protein kinase 14 (Homo sapiens);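 note: values are mean percent inhibition of p38alpha kinase activity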
Conditions: at 1 µM
reported property: inhibition (%)

smiles string	test system	readout value
CS(=O)(=O)CCNCc1ccoc1-c1ccc2ncnc(Nc3ccc(OCc4ccccc4)cc3)c2c1	Mitogen-activated protein kinase 14 (Homo sapiens)	0.9
CS(=O)(=O)CCNCc1ccc(-c2ccc3ncnc(Nc4ccc(OCc5cccc(C(F)(F)F)c5)cc4)c3c2)o1	Mitogen-activated protein kinase 14 (Homo sapiens)	13.9
CN1CCC(n2cnc(-c3ccc(F)cc3)c2-c2ccnc(NCCO)n2)CC1	Mitogen-activated protein kinase 14 (Homo sapiens)	86.3
COc1cccc(Nc2nccc(-c3cnn4ncccc34)n2)c1	Mitogen-activated protein kinase 14 (Homo sapiens)	9.35
Cn1c(-c2nonc2N)nc2cnccc21	Mitogen-activated protein kinase 14 (Homo sapiens)	6.34
c1cnn2ncc(-c3ccnc(NCCCN4CCOCC4)n3)c2c1	Mitogen-activated protein kinase 14 (Homo sapiens)	8.35
Cc1ccc(-c2cc3c(NC(=O)C4CC4)ncnc3o2)cc1	Mitogen-activated protein kinase 14 (Homo sapiens)	6.38
CN(c1ccc(NC(=O)NCCN2CCOCC2)cc1)c1ccnc(Nc2ccc(CS(C)(=O)=O)cc2)n1	Mitogen-activated protein kinase 14 (Homo sapiens)	5.83
O=C1Nc2ccccc2/C1=C1\CCc2cc(O)ccc21	Mitogen-activated protein kinase 14 (Homo sapiens)	7.01
O=C(O[C@H]1CN[C@H](C#Cc2cc3ncnc(Nc4ccc5c(cnn5Cc5ccccc5)c4)c3s2)C1)N1CCOCC1	Mitogen-activated protein kinase 14 (Homo sapiens)	0.45
O=C(O[C@H]1CN[C@H](C#Cc2cc3ncnc(Nc4ccc(OCc5cccc(F)c5)c(Cl)c4)c3s2)C1)N1CCOCC1	Mitogen-activated protein kinase 14 (Homo sapiens)	7.34

* * *

Measured inhibition, listed per entry for reference.
Molecular target: Tyrosine-protein kinase JAK1 (Homo sapiens);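 note: each value is a mean inhibition of JAK1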
Details: at 1 µM

smiles string	inhibition / %
OCCCNc1nccc(-c2c(-c3ccc(F)cc3)nn3cc(C(F)(F)F)ccc23)n1	-4.2
COc1cc(N2CCN(C(C)C)CC2)ccc1Nc1nc(Nc2cccc(F)c2C(=O)O)c2cc[nH]c2n1	8.87
O=C(O[C@H]1CN[C@H](C#Cc2cc3ncnc(Nc4ccc5c(cnn5Cc5ccccc5)c4)c3s2)C1)N1CCOCC1	3.26

* * *

Measured inhibition, listed per entry for reference.
Biological target: Receptor tyrosine-protein kinase erbB-4 (Homo sapiens);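 note: each value is a mean percent inhibition of ERBB4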
Conditions: at 1 µM

smiles string	test system	inhibition
CC(C)c1ccc(-c2cc(-c3c[nH]nc3-c3ccccn3)ccn2)cc1	Receptor tyrosine-protein kinase erbB-4 (Homo sapiens)	6.32%
NC(=O)c1ccc2c(-c3ccnc(NCCCO)n3)c(-c3ccc(F)cc3)nn2c1	Receptor tyrosine-protein kinase erbB-4 (Homo sapiens)	39%
COc1cc2c(cc1Nc1nc(Nc3cccc(F)c3C(N)=O)c3cc[nH]c3n1)N(C(=O)CN1CCN(C(C)C)CC1)CC2	Receptor tyrosine-protein kinase erbB-4 (Homo sapiens)	59.7%
CN1CCC(n2cnc(-c3ccc(F)cc3)c2-c2ccnc(NCCO)n2)CC1	Receptor tyrosine-protein kinase erbB-4 (Homo sapiens)	12.3%
O=C(O[C@H]1CN[C@H](C#Cc2cc3ncnc(Nc4ccc5c(cnn5Cc5ccccc5)c4)c3s2)C1)N1CCOCC1	Receptor tyrosine-protein kinase erbB-4 (Homo sapiens)	104%
CS(=O)(=O)Nc1ccc(-c2ccc3c(NC(=O)C4CC4)n[nH]c3c2)cc1	Receptor tyrosine-protein kinase erbB-4 (Homo sapiens)	9.99%
CS(=O)(=O)CCNCc1ccc(-c2ccc3ncnc(Nc4ccc(OCc5cccc(C(F)(F)F)c5)cc4)c3c2)o1	Receptor tyrosine-protein kinase erbB-4 (Homo sapiens)	28.5%

* * *

Measured inhibition, listed per entry for reference.
Target: Proto-oncogene tyrosine-protein kinase ROS (Homo sapiens) (UniProt P08922);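 note: value given is the mean percent inhibition of ROS kinase activity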
Sequence (P08922 whole entry): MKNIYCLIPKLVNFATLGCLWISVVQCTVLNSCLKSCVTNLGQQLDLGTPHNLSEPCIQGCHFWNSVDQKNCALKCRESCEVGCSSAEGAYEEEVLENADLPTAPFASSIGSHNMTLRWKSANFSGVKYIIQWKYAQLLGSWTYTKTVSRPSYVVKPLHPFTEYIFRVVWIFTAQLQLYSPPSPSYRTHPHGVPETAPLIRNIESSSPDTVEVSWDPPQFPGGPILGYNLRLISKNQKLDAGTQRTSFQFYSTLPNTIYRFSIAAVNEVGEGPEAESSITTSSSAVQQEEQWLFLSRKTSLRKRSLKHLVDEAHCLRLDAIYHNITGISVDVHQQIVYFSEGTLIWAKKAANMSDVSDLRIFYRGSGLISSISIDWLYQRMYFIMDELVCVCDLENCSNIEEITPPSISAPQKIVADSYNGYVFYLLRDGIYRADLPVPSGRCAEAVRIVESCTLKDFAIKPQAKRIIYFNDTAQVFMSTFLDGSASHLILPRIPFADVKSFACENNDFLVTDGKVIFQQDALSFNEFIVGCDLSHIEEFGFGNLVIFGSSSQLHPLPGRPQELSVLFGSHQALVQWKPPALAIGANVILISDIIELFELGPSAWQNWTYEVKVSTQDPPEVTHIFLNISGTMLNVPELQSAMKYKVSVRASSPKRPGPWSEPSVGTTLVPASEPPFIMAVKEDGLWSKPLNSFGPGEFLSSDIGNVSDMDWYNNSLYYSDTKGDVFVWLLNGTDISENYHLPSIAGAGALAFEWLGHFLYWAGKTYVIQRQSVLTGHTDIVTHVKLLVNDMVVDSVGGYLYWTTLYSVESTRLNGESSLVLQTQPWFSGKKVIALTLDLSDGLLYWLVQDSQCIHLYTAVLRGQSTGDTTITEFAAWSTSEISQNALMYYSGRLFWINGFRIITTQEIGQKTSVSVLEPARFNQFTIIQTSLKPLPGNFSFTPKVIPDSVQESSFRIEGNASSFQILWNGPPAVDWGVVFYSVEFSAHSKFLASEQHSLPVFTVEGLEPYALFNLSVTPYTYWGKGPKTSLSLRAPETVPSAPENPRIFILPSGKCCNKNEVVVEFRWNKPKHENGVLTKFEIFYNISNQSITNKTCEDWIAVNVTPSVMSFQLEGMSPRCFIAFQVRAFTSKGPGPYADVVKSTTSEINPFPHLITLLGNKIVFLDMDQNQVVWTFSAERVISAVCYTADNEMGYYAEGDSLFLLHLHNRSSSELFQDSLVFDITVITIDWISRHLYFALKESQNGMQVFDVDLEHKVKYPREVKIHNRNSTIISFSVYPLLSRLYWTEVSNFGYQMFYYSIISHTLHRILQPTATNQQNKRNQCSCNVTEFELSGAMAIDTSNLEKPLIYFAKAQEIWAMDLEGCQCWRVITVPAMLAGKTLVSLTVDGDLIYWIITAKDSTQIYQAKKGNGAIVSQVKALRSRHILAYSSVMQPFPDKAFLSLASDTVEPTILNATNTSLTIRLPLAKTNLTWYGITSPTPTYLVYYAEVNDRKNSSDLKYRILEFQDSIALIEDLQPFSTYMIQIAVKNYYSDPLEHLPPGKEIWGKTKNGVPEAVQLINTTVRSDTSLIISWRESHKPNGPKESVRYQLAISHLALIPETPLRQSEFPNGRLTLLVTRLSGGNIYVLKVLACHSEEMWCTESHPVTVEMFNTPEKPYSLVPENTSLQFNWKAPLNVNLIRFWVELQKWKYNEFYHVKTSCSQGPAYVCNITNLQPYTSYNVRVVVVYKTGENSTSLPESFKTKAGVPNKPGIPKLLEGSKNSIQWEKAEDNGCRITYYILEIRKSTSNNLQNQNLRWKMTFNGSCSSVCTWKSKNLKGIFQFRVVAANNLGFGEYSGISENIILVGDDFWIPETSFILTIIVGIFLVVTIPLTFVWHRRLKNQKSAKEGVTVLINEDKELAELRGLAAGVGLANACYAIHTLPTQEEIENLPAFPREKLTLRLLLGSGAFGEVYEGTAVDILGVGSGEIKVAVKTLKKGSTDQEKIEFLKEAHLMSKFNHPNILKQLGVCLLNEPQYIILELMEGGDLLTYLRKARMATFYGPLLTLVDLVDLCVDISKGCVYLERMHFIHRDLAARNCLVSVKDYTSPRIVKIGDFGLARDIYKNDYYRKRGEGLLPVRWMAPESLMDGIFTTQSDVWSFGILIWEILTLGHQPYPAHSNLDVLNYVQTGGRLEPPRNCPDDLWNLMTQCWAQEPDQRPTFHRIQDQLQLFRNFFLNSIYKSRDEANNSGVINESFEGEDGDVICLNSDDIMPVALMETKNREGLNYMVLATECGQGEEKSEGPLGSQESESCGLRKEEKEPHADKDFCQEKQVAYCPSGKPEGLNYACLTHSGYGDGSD
Conditions: at 1 µM

smiles string	inhibition (%)
c1ccc(-c2n[nH]cc2-c2ccnc(-c3ccc(OCCn4ccnc4)cc3)c2)nc1	10.7
CCS(=O)(=O)c1ccc(OC)c(Nc2ncc(-c3cccc(F)c3)o2)c1	27.5
CCS(=O)(=O)c1ccc(OC)c(Nc2ncc(-c3cccc(C(C)=O)c3)o2)c1	16.5
CNC(=O)c1sc(-n2cnc3cc(OC)c(OC)cc32)cc1OCc1ccccc1C(F)(F)F	5.06
CCn1c(-c2nonc2N)nc2cncc(C(=O)NCCNC)c21	14

* * *

Biological target: Serine/threonine-protein kinase PLK1 (Homo sapiens);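 note: reported value is a mean PLK1 inhibition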
Details: at 1 µM
Parameter threshold = 3%. Response is yes (1) when inhibition meets or exceeds it, else no (0).

smiles string	classification
CCCNc1cccc(-n2ncc3c(N/N=C/c4ccncc4)ncnc32)c1	no (0)
Cc1c2ccc(N(C)c3ccnc(Nc4cccc(S(N)(=O)=O)c4)n3)cc2nn1C	yes (1)
OCCCNc1nccc(-c2c(-c3ccc(F)cc3)nn3cc(C(F)(F)F)ccc23)n1	no (0)
N#Cc1cccc(Nc2ncc(-c3ccccc3)o2)c1	no (0)

* * *

Test system: Proto-oncogene tyrosine-protein kinase receptor Ret (Homo sapiens), P07949 [Y791F]
Sequence (P07949 whole entry Y791F): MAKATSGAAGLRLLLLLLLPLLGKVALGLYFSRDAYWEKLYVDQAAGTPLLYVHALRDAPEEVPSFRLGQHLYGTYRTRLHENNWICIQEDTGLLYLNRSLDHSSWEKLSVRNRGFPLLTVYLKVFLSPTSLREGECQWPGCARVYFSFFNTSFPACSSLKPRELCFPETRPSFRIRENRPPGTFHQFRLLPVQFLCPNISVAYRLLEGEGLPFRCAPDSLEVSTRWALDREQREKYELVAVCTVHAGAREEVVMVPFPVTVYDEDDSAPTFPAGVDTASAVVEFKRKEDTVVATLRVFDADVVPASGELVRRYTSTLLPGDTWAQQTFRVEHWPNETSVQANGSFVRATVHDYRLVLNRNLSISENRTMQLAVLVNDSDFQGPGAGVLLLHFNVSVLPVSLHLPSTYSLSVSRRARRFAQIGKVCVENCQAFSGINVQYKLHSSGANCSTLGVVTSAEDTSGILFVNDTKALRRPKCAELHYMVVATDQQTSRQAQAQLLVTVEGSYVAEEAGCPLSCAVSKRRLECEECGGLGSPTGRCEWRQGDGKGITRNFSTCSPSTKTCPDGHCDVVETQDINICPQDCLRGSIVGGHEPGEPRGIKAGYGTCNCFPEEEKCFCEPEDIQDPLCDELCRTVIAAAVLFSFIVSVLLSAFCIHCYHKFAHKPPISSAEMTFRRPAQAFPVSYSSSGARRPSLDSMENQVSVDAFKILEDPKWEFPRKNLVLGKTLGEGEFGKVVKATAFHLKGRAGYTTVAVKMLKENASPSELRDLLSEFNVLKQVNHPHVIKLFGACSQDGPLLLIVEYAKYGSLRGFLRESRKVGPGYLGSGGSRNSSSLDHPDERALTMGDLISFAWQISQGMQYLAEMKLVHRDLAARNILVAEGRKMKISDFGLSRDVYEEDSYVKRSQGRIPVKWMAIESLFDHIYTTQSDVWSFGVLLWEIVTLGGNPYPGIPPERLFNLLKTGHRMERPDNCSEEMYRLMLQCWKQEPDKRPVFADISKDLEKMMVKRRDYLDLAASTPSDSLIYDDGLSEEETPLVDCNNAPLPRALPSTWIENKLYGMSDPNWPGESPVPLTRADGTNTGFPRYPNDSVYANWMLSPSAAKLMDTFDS
Conditions: at 0.1 µM
Measured inhibition, listed per entry for reference.
reported property: inhibition (%)

smiles string	readout unit	readout value
O=C(O[C@H]1CN[C@H](C#Cc2cc3ncnc(Nc4ccc5c(cnn5Cc5ccccc5)c4)c3s2)C1)N1CCOCC1	%	2.45
CCN1CCC(C(=O)Nc2n[nH]c3nnc(-c4cccc(F)c4F)cc23)CC1	%	3.29
CS(=O)(=O)CCNCc1ccc(-c2ccc3ncnc(Nc4ccc(OCc5ccccc5)cc4)c3c2)o1	%	3.34
OCCCNc1nccc(-c2c(-c3ccc(F)cc3)nn3cc(C(F)(F)F)ccc23)n1	%	6.39
NC(=O)c1ccc2c(-c3ccnc(NCCCO)n3)c(-c3ccc(F)cc3)nn2c1	%	6.62
COc1cc(Nc2ncc(-c3ccccc3)o2)cc(OC)c1	%	8.14
NS(=O)(=O)c1ccc(N/N=C2\C(=O)Nc3cccc(CCc4ccncc4)c32)cc1	%	18.8
CS(=O)(=O)Nc1ccc(-c2ccc3c(NC(=O)C4CC4)n[nH]c3c2)cc1	%	6.88
Cc1nnc(-c2cccc(-c3ccc(C(=O)NCC4CC4)cc3)c2)o1	%	5
Cc1cc(O)cc(C)c1/C=C/c1cncc(C(N)=O)c1	%	3.94
O=C(Nc1n[nH]c2nnc(-c3cccnc3)cc12)C1CC1	%	1.5
